- measured-target: angiotensin II AT1 receptor
- protocol: Assay A: Angiotensin II binding activity (125I-AII displacement, rat uterine membrane preparation)
- Procedure: Assay A: Antiotensin II Binding Activity Compounds of the invention were tested for ability to bind to the smooth muscle angiotensin II receptor using a rat uterine membrane preparation. […] Rat uterine membranes were prepared from fresh tissue. […] Filters were assayed for radioactivity in a Micromedic gamma counter. Nonspecific binding was defined as binding in the presence of 10 μM of unlabelled AII. Specific binding was calculated as total binding minus nonspecific binding. […]
pIC50: −log10 of the molar value.
In this scheme, each record receives a class according to its pIC50; the ranges are LOW = under 7, MEDIUM = from 7 up to 8, HIGH = 8 and over

Below are worked cases with known answers.
Exercise: Using the reported pIC50, which band applies to CCCCc1nc(-c2ccccc2C)nn1Cc1ccc(-c2ccccc2-c2nnn[nH]2)nc1 [Compound 261] ?
Key: MEDIUM

Exercise: Now try CCCCc1cn(-c2c(OC)cccc2OC)c(=O)n1Cc1ccc(-c2ccccc2-c2nnn[nH]2)nc1 [Compound 230] .
Key: HIGH

Exercise: Now try CCCCc1nn(CCCc2ccccc2)c(=O)n1Cc1ccc(-c2ccccc2-c2nn[nH]n2)cc1 [Compound 81] .
Key: MEDIUM

Exercise: Now try CCCCCn1nc(CCCC)n(Cc2ccc(-c3ccccc3-c3nn[nH]n3)cc2)c1=O [Compound 90] .
Key: HIGH

Continuing:
Exercise: Using the reported pIC50, which band applies to CCCCc1nc(-c2c(F)cccc2F)n(Cc2ccc(-c3ccccc3-c3nnn[nH]3)nc2)n1 [Compound 270] ?
Key: MEDIUM

Exercise: Now try CCCCc1cn(-c2c(CC)cccc2CC)c(=O)n1Cc1ccc(-c2ccccc2-c2nnn[nH]2)nc1 [Compound 234] .
Key: HIGH

Exercise: Now try CCn1nc(C(C)(F)F)nc1Cc1ccc(-c2ccccc2-c2nnn[nH]2)nc1 [Compound 164] .
Key: LOW

Exercise: Now try CCCCc1nn(CC(OCc2ccccc2)c2ccccc2)c(=O)n1Cc1ccc(-c2ccccc2-c2nn[nH]n2)cc1 (centres unmarked) [Compound 97] .
Key: LOW

Exercise: Now try CCCCc1cn(-c2c(C)cc(C)cc2C)c(=O)n1Cc1ccc(-c2ccccc2-c2nnn[nH]2)nc1 [Compound 232] .
Key: HIGH

Exercise: Now try CCCCc1nn(CCC(C)CC(C)(C)C)c(=O)n1Cc1ccc(-c2ccccc2-c2nn[nH]n2)cc1 (centres unmarked) [Compound 92] .
Key: MEDIUM

Exercise: Now try CCCCn1nc(C(C)(OC)OC)nc1Cc1ccc(-c2ccccc2-c2nnn[nH]2)nc1 [Compound 182] .
Key: MEDIUM

Exercise: Now try CCCCc1cn(CC2CCCC2)c(=O)n1Cc1ccc(-c2ccccc2-c2nnn[nH]2)nc1 [Compound 208] .
Key: MEDIUM
